Data origin, for the record: ChEMBL document CHEMBL4257527

- TARGET ENTITY: Inositol 1,4,5-trisphosphate-gated calcium channel ITPR1 (Rattus norvegicus, UniProt P29994)
- Sequence (P29994 whole entry): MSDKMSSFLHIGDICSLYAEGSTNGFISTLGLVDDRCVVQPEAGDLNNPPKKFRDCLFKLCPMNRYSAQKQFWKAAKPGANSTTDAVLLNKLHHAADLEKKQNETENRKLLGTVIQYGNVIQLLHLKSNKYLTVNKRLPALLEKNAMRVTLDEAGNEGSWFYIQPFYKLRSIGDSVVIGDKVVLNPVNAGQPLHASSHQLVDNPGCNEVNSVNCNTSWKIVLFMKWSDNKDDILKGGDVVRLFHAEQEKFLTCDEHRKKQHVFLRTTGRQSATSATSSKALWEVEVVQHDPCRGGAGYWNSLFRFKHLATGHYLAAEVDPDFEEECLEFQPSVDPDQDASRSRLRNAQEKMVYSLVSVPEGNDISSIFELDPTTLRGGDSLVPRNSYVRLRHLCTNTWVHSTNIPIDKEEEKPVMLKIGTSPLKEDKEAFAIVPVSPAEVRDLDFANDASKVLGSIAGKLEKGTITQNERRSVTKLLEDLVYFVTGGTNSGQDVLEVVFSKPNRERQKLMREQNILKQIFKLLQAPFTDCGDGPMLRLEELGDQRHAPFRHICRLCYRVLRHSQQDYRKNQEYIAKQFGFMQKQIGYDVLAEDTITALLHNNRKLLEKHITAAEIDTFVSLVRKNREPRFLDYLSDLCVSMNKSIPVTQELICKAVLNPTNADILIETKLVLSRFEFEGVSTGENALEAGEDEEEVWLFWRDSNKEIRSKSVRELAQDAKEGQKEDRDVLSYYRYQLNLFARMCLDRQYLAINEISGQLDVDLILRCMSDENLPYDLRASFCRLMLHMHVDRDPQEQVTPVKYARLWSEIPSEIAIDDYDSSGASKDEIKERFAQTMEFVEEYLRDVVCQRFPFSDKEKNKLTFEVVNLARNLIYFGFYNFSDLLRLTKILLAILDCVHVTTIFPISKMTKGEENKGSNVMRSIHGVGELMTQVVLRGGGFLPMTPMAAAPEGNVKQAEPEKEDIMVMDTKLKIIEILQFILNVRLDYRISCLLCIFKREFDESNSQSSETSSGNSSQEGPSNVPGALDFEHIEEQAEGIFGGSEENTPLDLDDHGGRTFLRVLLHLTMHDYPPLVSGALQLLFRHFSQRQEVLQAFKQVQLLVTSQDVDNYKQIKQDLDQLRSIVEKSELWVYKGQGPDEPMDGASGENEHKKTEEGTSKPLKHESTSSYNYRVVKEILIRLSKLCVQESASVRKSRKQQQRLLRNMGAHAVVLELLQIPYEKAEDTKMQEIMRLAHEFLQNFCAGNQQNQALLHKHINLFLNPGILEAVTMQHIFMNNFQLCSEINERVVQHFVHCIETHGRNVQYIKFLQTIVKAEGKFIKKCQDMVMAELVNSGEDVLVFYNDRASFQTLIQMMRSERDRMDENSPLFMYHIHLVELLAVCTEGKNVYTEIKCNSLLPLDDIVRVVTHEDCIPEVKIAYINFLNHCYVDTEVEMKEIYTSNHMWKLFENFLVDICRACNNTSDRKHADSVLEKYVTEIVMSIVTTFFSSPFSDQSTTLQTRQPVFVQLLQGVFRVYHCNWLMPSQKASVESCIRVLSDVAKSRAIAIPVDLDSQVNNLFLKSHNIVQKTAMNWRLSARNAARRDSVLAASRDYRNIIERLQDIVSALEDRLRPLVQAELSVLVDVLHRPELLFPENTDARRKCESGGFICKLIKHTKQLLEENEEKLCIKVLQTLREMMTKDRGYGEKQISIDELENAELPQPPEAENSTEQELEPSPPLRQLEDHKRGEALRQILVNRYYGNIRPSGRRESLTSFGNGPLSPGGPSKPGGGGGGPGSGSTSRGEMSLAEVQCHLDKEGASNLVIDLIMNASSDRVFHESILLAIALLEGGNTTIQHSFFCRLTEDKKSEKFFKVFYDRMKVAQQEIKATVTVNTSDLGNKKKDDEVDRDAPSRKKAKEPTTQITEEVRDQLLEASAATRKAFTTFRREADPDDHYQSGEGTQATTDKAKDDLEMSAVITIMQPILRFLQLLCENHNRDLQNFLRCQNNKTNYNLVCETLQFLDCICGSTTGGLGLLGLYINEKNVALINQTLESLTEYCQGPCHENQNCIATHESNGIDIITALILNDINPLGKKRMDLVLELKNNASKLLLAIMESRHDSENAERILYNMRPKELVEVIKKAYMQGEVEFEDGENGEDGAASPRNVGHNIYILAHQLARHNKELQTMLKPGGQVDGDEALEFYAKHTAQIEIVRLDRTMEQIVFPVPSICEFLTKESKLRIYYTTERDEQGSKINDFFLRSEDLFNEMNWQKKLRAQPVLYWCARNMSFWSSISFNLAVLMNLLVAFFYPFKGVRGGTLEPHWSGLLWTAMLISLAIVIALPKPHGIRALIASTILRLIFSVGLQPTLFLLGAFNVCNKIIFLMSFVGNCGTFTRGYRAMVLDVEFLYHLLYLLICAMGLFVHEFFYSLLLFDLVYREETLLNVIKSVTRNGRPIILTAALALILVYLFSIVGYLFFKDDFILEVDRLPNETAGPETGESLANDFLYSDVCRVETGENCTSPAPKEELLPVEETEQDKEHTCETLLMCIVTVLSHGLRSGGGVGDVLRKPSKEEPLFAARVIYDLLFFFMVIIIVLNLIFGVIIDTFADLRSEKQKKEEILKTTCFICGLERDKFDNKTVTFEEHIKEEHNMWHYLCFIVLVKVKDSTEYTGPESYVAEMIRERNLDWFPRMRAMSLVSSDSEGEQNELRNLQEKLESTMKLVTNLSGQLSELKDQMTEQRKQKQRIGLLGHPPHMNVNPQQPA
- MEASUREMENT NOTES: Displacement of [3H]-InsP3 from rat type-1 InsP3 receptor expressed in sf9 cell membranes in cytosol like medium containing Mg-ATP
PROPERTY: pKd
Give bare numbers, as −log10 of the molar value.

[Q] Fill in pKd for record O=P(O)(O)O[C@@H]1[C@@H](O)[C@@H](O)[C@@H](OP(=O)(O)OP(=O)(O)O)[C@H](O)[C@H]1OP(=O)(O)O
[A] 6.96

====

- MEASUREMENT NOTES: Stability in pH 7.5 Tris acetate/NaCl/DTT buffer after 20 mins in presence of Mg2+ by malachite green dye based assay
- Type: physicochemical
- PARTICULARS: pH 7.5, 20 min
PROPERTY: Stability

Nc1ncnc2c1ncn2[C@@H]1O[C@H](COP(=O)(O)OP(=O)(O)OP(=O)(O)OC[C@H]2O[C@@H](n3cnc4c(N)ncnc43)[C@H](O)[C@@H]2O)[C@@H](O)[C@H]1O Stable
O=P(O)(O)O[C@@H]1[C@@H](OP(=O)(O)O)[C@@H](OP(=O)(O)O)[C@@H](OP(=O)(O)OP(=O)(O)O)[C@H](OP(=O)(O)O)[C@H]1OP(=O)(O)O Stable
Nc1ncnc2c1ncn2[C@@H]1O[C@H](COP(=O)(O)OP(=O)(O)OP(=O)(O)OP(=O)(O)OP(=O)(O)OC[C@H]2O[C@@H](n3cnc4c(N)ncnc43)[C@H](O)[C@@H]2O)[C@@H](O)[C@H]1O Stable
